All values here come from paper PMC7004355.

Recorded Km for the following proteins
- Substrate: NCCC[C@H](N)C(=O)O
- test_protocol: purified protein
- condition: 50 mM Tris pH 8.5, 20 °C, 20 mM NaCl, carbamoyl phosphate 5 mM
readout_kind: Km (µM)

{"columns": ["protein", "readout_kind", "result_value"],
 "data": [
  ["OTC (E. coli ornithine transcarbamoylase, argI) (Escherichia coli K-12; E300Q) (protein, full length, uncleaved 6xHis tag, pCA24N ASKA clone, expressed in BL21(DE3) Tuner; homotrimer of 333-residue subunits) SGFYHKHFLKLLDFTPAELNSLLQLAAKLKADKKSGKEEAKLTGKNIALIFEKDSTRTRCSFEVAAYDQGARVTYLGPSGSQIGHKESIKDTARVLGRMYDGIQYRGYGQEIVETLAEYASVPVWNGLTNEFHPTQLLADLLTMQEHLPGKAFNEMTLVYAGDARNNMGNSMLEAAALTGLDLRLVAPQACWPEAALVTECRALAQQNGGNITLTEDVAKGVEGADFIYTDVWVSMGEAKEKWAERIALLREYQVNSKMMQLTGNPEVKFLHCLPAFHDDQTTLGKKMAEEFGLHGGMQVTDEVFESAASIVFDQAENRMHTIKAVMVATLSK", "Km", 330],
  ["Escherichia coli ornithine transcarbamoylase (OTC) variant D231A, His-tagged (enzyme, E. coli, Anabolic ornithine transcarbamoylase of E. coli, argI gene, 333-residue subunit; Made by site-directed mutagenesis of the ASKA pCA24N plasmid; 6x-His tag not cleaved; source: E. coli BL21 (DE3) Tuner, purified (HisTrap FF, Superdex 200 SEC)) SGFYHKHFLKLLDFTPAELNSLLQLAAKLKADKKSGKEEAKLTGKNIALIFEKDSTRTRCSFEVAAYDQGARVTYLGPSGSQIGHKESIKDTARVLGRMYDGIQYRGYGQEIVETLAEYASVPVWNGLTNEFHPTQLLADLLTMQEHLPGKAFNEMTLVYAGDARNNMGNSMLEAAALTGLDLRLVAPQACWPEAALVTECRALAQQNGGNITLTEDVAKGVEGADFIYTAVWVSMGEAKEKWAERIALLREYQVNSKMMQLTGNPEVKFLHCLPAFHDDQTTLGKKMAEEFGLHGGMEVTDEVFESAASIVFDQAENRMHTIKAVMVATLSK", "Km", 590]
]}
